protocol notes: AUC in Zucker fa/fa rat at 5 mg/kg, po
Type: ADME, organism-based
Set-up: dose 5 mg/kg, route oral
experimental parameters: plasma
result type: AUC (ng·h/mL)
Expressed in ng·h/mL, but write only the number.

INSERT INTO measurements (compound, result_type, numeric_value) VALUES
  ('CCC(NC(=O)c1ccc2c(c1)c(C)c(C)n2Cc1ccc(-c2ccccc2C(=O)O)cc1)c1ccccc1 (configuration not stated)', 'AUC', 1330);

Now look at this one.
Entry CN(CCOc1ccc(C[C@H](Nc2ccccc2C(=O)c2ccccc2)C(=O)O)cc1)c1ccccn1 — recorded AUC = 16500

###

tgt: Peroxisome proliferator-activated receptor alpha (Homo sapiens)
Sequence (Q07869 whole entry): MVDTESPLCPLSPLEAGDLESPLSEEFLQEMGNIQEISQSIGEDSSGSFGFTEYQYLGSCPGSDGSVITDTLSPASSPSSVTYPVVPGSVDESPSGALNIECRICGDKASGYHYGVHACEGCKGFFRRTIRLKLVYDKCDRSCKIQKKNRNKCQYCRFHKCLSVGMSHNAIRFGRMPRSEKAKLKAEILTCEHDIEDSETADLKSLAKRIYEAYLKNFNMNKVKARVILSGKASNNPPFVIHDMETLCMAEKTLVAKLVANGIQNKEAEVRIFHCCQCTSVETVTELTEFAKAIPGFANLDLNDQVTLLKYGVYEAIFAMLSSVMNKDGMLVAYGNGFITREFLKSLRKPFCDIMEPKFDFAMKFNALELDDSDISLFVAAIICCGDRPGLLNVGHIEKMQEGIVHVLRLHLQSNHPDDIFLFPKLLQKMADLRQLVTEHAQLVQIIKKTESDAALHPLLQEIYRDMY
protocol notes: Displacement of radiolabeled GW-2433 from human PPARalpha ligand binding domain expressed in Escherichia coli
pIC50: −log10 of the molar value.
Reported pIC50 values follow for various compounds

INSERT INTO results (compound, result) VALUES
  ('CCCc1c(SC)c2cc(NC(=O)C(CC)c3ccccc3)ccc2n1Cc1ccc(-c2ccccc2C(=O)O)cc1 (stereo not drawn)', '< 5.00'),
  ('CCCc1cc2cc(NC(=O)C(CC)c3ccccc3)ccc2n1Cc1ccc(-c2ccccc2C(=O)O)cc1 (stereo not drawn)', '< 5.00');

Now look at this one.
Entry CCC(NC(=O)c1ccc2c(c1)c(SC)c(C)n2Cc1ccc(-c2ccccc2C(=O)O)cc1)c1ccccc1 (stereo not drawn) — recorded pIC50 = < 5.00

###

tgt: Peroxisome proliferator-activated receptor gamma (Homo sapiens)
pIC50: −log10 of the molar value.
Label label 1 when pIC50 is at or above 6; anything below gets label 0.

INSERT INTO results (compound, label) VALUES
  ('CCCc1cc2cc(NC(=O)C(CC)c3ccccc3)ccc2n1Cc1ccc(-c2ccccc2C(=O)O)cc1 (stereo not given)', 'label 1');

Exercise: Threshold query (pIC50 >= 6) on CCC(NC(=O)c1ccc2cc(C)n(Cc3ccc(-c4ccccc4C(=O)O)cc3)c2c1)c1ccccc1 (stereo not given)
Key: label 1

Exercise: Threshold query (pIC50 >= 6) on CCCc1c(SC)c2cc(NC(=O)C(CC)c3ccccc3)ccc2n1Cc1ccc(-c2ccccc2C(=O)O)cc1 (stereo not given)
Key: label 1

Exercise: Threshold query (pIC50 >= 6) on CCCc1nc2c(C)cc(-c3nc4ccccc4n3C)cc2n1Cc1ccc(-c2ccccc2C(=O)O)cc1
Key: label 0

Exercise: Threshold query (pIC50 >= 6) on CCC(NC(=O)c1ccc2c(c1)c(SC)c(C)n2Cc1ccc(-c2ccccc2C(=O)O)cc1)c1ccccc1 (stereo not given)
Key: label 1

###

This document collects IC50 values reported for Peroxisome proliferator-activated receptor gamma (Homo sapiens).
Expressed in µM, but write only the number.

Solved cases (3 shown):
INSERT INTO measurements (compound, unit_annotation, numeric_value) VALUES
  ('Cc1c(C)n(Cc2ccc(-c3ccccc3C(=O)O)cc2)c2ccc(C(=O)NCCCc3ccccc3)cc12', 'µM', 0.018),
  ('CCCc1c(SC)c2ccc(NC(=O)C(CC)c3ccccc3)cc2n1Cc1ccc(-c2ccccc2C(=O)O)cc1 (centres undefined)', 'µM', 0.49),
  ('CCC(C(=O)Nc1ccc2c(c1)c(C)c(C)n2Cc1ccc(-c2ccccc2C(=O)O)cc1)c1ccccc1 (centres undefined)', 'µM', 0.574);

Entry CCC(NC(=O)c1ccc2c(c1)cc(C)n2Cc1ccc(-c2ccccc2C(=O)O)cc1)c1ccccc1 (centres undefined) — recorded IC50 = 0.018

###

tgt: Peroxisome proliferator-activated receptor gamma (Homo sapiens, UniProt P37231)
Sequence (P37231 whole entry): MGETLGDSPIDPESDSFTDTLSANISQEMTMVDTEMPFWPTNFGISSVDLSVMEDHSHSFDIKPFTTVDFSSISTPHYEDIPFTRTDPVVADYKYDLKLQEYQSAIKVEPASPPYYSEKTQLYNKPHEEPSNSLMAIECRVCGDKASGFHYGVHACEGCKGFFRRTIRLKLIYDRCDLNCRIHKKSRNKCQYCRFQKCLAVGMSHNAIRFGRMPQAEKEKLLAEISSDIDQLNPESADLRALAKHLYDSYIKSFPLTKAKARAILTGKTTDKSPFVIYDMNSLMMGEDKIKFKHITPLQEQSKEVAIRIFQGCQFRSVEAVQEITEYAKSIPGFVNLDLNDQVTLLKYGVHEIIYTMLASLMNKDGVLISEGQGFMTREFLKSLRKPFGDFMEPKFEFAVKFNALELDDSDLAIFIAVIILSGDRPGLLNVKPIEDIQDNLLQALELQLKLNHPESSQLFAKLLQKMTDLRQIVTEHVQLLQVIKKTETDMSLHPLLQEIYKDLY
Reported EC50 values follow for various compounds
Expressed in nM, but write only the number.

Solved cases (3 shown):
INSERT INTO measurements (compound, unit_annotation, numeric_value) VALUES
  ('CCC(NC(=O)c1ccc2c(c1)cc(C)n2Cc1ccc(-c2ccccc2C(=O)O)cc1)c1ccccc1 (stereo not given)', 'nM', 17),
  ('CCC(NC(=O)c1ccc2cc(C)n(Cc3ccc(-c4ccccc4C(=O)O)cc3)c2c1)c1ccccc1 (stereo not given)', 'nM', 163),
  ('CCC(NC(=O)c1ccc2c(c1)c(SC)c(C)n2Cc1ccc(-c2ccccc2C(=O)O)cc1)c1ccccc1 (stereo not given)', 'nM', 1);

Entry Cc1c(C)n(Cc2ccc(-c3ccccc3C(=O)O)cc2)c2ccc(C(=O)NCCCc3ccccc3)cc12 — recorded EC50 = 22

Entry CCCc1c(SC)c2ccc(NC(=O)C(CC)c3ccccc3)cc2n1Cc1ccc(-c2ccccc2C(=O)O)cc1 (stereo not given) — recorded EC50 = 201

Entry CCCc1nc2c(C)cc(-c3nc4ccccc4n3C)cc2n1Cc1ccc(-c2ccccc2C(=O)O)cc1 — recorded EC50 = 2020

Entry CCC(C(=O)Nc1ccc2c(c1)c(C)c(C)n2Cc1ccc(-c2ccccc2C(=O)O)cc1)c1ccccc1 (stereo not given) — recorded EC50 = 338

Entry CCCc1nc2ccc(C(=O)NC(CC)c3ccccc3)cc2n1Cc1ccc(-c2ccccc2C(=O)O)cc1 (stereo not given) — recorded EC50 = 900

Entry CCCc1c(SC)c2cc(NC(=O)C(CC)c3ccccc3)ccc2n1Cc1ccc(-c2ccccc2C(=O)O)cc1 (stereo not given) — recorded EC50 = 3

Entry CCCc1cc2cc(NC(=O)C(CC)c3ccccc3)ccc2n1Cc1ccc(-c2ccccc2C(=O)O)cc1 (stereo not given) — recorded EC50 = 2

###

tgt: Peroxisome proliferator-activated receptor gamma (Mus musculus, UniProt P37238)
Sequence (P37238 whole entry, the tested form may be a part): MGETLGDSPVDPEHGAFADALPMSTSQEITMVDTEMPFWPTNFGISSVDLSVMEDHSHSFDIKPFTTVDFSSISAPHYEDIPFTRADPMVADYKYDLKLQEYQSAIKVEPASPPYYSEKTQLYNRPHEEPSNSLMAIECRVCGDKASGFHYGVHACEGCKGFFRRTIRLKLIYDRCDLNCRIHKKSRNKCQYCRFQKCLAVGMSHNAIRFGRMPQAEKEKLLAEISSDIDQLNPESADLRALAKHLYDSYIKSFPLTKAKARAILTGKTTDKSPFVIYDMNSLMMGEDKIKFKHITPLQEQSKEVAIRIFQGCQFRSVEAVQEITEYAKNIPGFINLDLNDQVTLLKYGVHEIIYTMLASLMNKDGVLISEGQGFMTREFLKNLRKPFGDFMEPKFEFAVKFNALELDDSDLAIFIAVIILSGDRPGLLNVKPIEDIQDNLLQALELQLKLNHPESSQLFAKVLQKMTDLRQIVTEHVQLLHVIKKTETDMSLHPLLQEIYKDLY
protocol notes: Agonist activity at mouse PPARgamma expressed in african green monkey CV1 cells by Gal4 transactivation assay
result type: EC50 (nM)
Expressed in nM, but write only the number.

Solved cases (2 shown):
INSERT INTO results (molecule, numeric_value) VALUES
  ('CCCc1nc2ccc(C(=O)NC(CC)c3ccccc3)cc2n1Cc1ccc(-c2ccccc2C(=O)O)cc1 (stereo not drawn)', 1690),
  ('CCCc1nc2c(C)cc(-c3nc4ccccc4n3C)cc2n1Cc1ccc(-c2ccccc2C(=O)O)cc1', 4060);

Now look at this one.
Entry CCC(NC(=O)c1ccc2c(c1)c(C)c(C)n2Cc1ccc(-c2ccccc2C(=O)O)cc1)c1ccccc1 (stereo not drawn) — recorded EC50 = 2

###

tgt: Peroxisome proliferator-activated receptor delta (Mus musculus, UniProt P35396)
Sequence (P35396 whole entry): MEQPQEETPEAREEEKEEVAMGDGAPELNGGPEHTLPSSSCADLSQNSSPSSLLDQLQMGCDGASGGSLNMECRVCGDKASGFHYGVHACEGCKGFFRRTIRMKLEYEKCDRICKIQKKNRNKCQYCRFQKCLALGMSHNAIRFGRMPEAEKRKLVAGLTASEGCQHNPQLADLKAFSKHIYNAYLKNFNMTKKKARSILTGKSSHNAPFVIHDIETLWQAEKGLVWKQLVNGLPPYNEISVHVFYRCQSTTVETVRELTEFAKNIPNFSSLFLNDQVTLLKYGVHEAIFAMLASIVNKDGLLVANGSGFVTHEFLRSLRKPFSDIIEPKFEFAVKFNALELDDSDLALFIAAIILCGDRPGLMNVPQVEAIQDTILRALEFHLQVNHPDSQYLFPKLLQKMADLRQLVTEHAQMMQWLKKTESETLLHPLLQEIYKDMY
protocol notes: Agonist activity at mouse PPARdelta expressed in african green monkey CV1 cells by Gal4 transactivation assay
result type: EC50

Solved cases (2 shown):
INSERT INTO assay_data (compound, result_type, result) VALUES
  ('CCC(NC(=O)c1ccc2c(c1)c(C)c(C)n2Cc1ccc(-c2ccccc2C(=O)O)cc1)c1ccccc1 (stereo not drawn)', 'EC50', '> 10 µM'),
  ('CCCc1nc2ccc(C(=O)NC(CC)c3ccccc3)cc2n1Cc1ccc(-c2ccccc2C(=O)O)cc1 (stereo not drawn)', 'EC50', '> 10 µM');

Now look at this one.
Entry CCCc1nc2c(C)cc(-c3nc4ccccc4n3C)cc2n1Cc1ccc(-c2ccccc2C(=O)O)cc1 ; assay system Peroxisome proliferator-activated receptor delta (Mus musculus, UniProt P35396); EC50 recorded at > 10 µM
